This listing pairs binders with measured pKd.
Molecular target: GRIP2_7, Q9C0E4
Sequence (Q9C0E4 934-1023): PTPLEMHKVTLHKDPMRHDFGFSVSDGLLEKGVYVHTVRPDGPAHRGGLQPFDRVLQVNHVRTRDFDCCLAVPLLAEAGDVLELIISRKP
Test: holdup assay
Parameters: key: below the threshold = too weak to quantify, mostly under pKd 3.1 to 4
Details: plain residues with an end cap or a label only (N-terminal biotin on a linker: ttds)
Please respond with just the number, no unit label.

## Task Tell me pKd reported for EMDRRPATVV [PLCB4, Q15147]
## Result 3.63

## Task Tell me pKd reported for SGSRPSATVV [HPV73-E6, Q82005]
## Result 3.56
